System: SETVI, Green foxtail, Setaria viridis, (L.)Beau
Assay: Preemergence herbicidal evaluation (Example 148)
Assay type: in vivo
Details: rate 0.125 kg/ha, rating scale 0-9, two to four weeks after treatment
Procedure: The scale is based upon a visual observation of plant stand, vigor, malformation, size, chlorosis and overall plant appearance as compared with a control. The herbicidal activity of the compounds of the present invention was evaluated by the following tests wherein the seeds of a variety of monocotyledonous and dicotyledonous plants were separately mixed with potting soil and planted on top of approximately one inch of soil in separate pint cups. […]
measure-name: Preemergence herbicidal rating SETVI
Output spec: single numeric token, no unit.

Example compounds with recorded Preemergence herbicidal rating SETVI:
CCN(CC)S(=O)(=O)NC(=O)c1cc(-n2c(=O)cc(C(F)(F)F)n(C)c2=O)c(F)cc1Cl : 4.0
CN(c1ccccc1)S(=O)(=O)NC(=O)c1cc(-n2c(=O)cc(C(F)(F)F)n(C)c2=O)c(F)cc1Cl : 2.0
C#CCNS(=O)(=O)NC(=O)c1cc(-n2c(=O)cc(C(F)(F)F)n(C)c2=O)c(F)cc1Cl : 0.0
CN(CCC#N)S(=O)(=O)NC(=O)c1cc(-n2c(=O)cc(C(F)(F)F)n(C)c2=O)c(F)cc1Cl : 7.0
CN(Cc1cccc(Cl)c1)S(=O)(=O)NC(=O)c1cc(-n2c(=O)cc(C(F)(F)F)n(C)c2=O)c(F)cc1Cl : 6.0

Per the record, CCCCN(C)S(=O)(=O)NC(=O)c1cc(-n2c(=O)cc(C(F)(F)F)n(C)c2=O)c(F)cc1Cl has Preemergence herbicidal rating SETVI of 3.0

// Preemergence herbicidal rating SETVI value for CCN(C)S(=O)(=O)NC(=O)c1cc(-n2c(=O)cc(C(F)(F)F)n(C)c2=O)c(F)cc1Cl : 4.0
